- Test Name: H1N1 influenza NS1A inhibitors, functional cell based assay (AID 504329)
- Particulars: percent inhibition, at 12.5 µM, active compounds read high
Out of some 340,000 compounds screened, about 1,000 (0.29%) were called active. A selection follows. Entries with a potency or affinity are not part of this list.
Measured Parameter: inhibition

{"Molecule": "Cc1c(-c2ccccc2)nc2ccccc2c1C(=O)Nc1ccncc1", "Measured Parameter": "inhibition", "Recorded Result": "-4.14% (inactive)"}
{"Molecule": "CC(NC(=O)c1ccco1)C(=O)Nc1nccs1 (stereo unspecified)", "Measured Parameter": "inhibition", "Recorded Result": "-3.4% (inactive)"}
{"Molecule": "O=C(Nc1nc(-c2ccccc2)cs1)C1COc2ccccc2O1 (stereo unspecified)", "Measured Parameter": "inhibition", "Recorded Result": "3.59% (inactive)"}
{"Molecule": "CCN(CC)CCOc1ccccc1C(C)=O", "Measured Parameter": "inhibition", "Recorded Result": "-6.91% (inactive)"}
{"Molecule": "C[C@H](NC(=O)c1ccco1)C(=O)Nc1nc(-c2ccccn2)cs1", "Measured Parameter": "inhibition", "Recorded Result": "21.6% (inactive)"}

Okay, next one:
# input Tell me the measured inhibition of Cc1csc(NC(=O)C2CC(=O)N(c3ccc4c(c3)OCCO4)C2)n1 (stereo unspecified) , please.
# output -10.8% (inactive)
